Values from paper PMC11191101

melting point by entry:

# example entries with known answers
molecule	result
NN=C1C(=O)Nc2ccc(F)cc21 [Compound 1, 5-Fluoro-3-hydrazonoindolin-2-one]	203 to 204 °C
O=C1Nc2ccc(F)cc2C1=NN=Cc1ccccc1O	252 to 253 °C
O=C1Nc2ccc(F)cc2C1=NN=Cc1ccc([N+](=O)[O-])cc1	249 to 251 °C
COc1cccc(C=NN=C2C(=O)Nc3ccc(F)cc32)c1O	244 to 246 °C
COc1ccc(C=NN=C2C(=O)Nc3ccc(F)cc32)cc1	247 to 248 °C

Ask: Consider the molecule O=C1Nc2ccc(F)cc2C1=NN=Cc1ccccc1 and give its measured melting point.
Reply: 229 to 230 °C

Ask: Consider the molecule O=C1Nc2ccc(F)cc2C1=NN=Cc1ccc(F)cc1 and give its measured melting point.
Reply: 246 to 248 °C
